assay: in vitro; details: human

| QUERY SMILES | CC50 at 5 days |
| --- | --- |
| N#C[C@@]1(c2ccc3c(N)ncnn23)O[C@H](CO)[C@@H](O)[C@H]1O | > 100 µM |
| CCC(CC)COC(=O)[C@H](C)N[P@](=O)(OC[C@H]1O[C@@](C#N)(c2ccc3c(N)ncnn23)[C@H](O)[C@@H]1O)Oc1ccccc1 | 1.4 µM |

---

biological target: human DNA polymerase beta (Homo sapiens, UniProt P06746)
pIC50: −log10 of the molar value.

| QUERY SMILES | pIC50 |
| --- | --- |
| Cc1cn([C@H]2CC[C@@H](COP(=O)(O)OP(=O)(O)OP(=O)(O)O)O2)c(=O)[nH]c1=O | 5.72 |
